Listed molecules paired with reported IC50
Biological target: Coffee beans α-Galactosidase (Coffea arabica, UniProt Q42656)
Sequence (Q42656 16-378): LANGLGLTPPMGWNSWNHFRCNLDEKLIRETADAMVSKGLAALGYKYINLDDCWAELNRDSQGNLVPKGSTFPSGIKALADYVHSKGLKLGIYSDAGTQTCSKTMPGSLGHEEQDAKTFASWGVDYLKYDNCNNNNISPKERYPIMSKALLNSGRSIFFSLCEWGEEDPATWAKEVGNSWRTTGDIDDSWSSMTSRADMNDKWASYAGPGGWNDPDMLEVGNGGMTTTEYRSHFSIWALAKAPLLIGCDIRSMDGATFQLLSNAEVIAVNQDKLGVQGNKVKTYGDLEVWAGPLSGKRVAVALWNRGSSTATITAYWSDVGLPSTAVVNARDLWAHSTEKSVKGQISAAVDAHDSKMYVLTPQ
Assay: Glycosidase inhibition, coffee beans α-galactosidase
Type: biochemical

Use these answered entries as a reference point.
CPD_SMILES: OC[C@]1(O)CNC[C@@H]1O
TGT: Coffee beans α-Galactosidase (Coffea arabica, UniProt Q42656)
OBSERVED_PROPERTY: IC50
REPORTED_MEASUREMENT: > 1 mM

CPD_SMILES: OC[C@@H]1NC[C@H](O)[C@H]1O
TGT: Coffee beans α-Galactosidase (Coffea arabica, UniProt Q42656)
OBSERVED_PROPERTY: IC50
REPORTED_MEASUREMENT: > 1 mM

CPD_SMILES: OC[C@@]1(O)CNC[C@H]1O
TGT: Coffee beans α-Galactosidase (Coffea arabica, UniProt Q42656)
OBSERVED_PROPERTY: IC50
REPORTED_MEASUREMENT: > 1 mM

CPD_SMILES: C[C@]1(CO)NC[C@@H](O)[C@@H]1O
TGT: Coffee beans α-Galactosidase (Coffea arabica, UniProt Q42656)
OBSERVED_PROPERTY: IC50
REPORTED_MEASUREMENT: > 1 mM

CPD_SMILES: C[C@@]1(CO)NC[C@H](O)[C@H]1O
TGT: Coffee beans α-Galactosidase (Coffea arabica, UniProt Q42656)
OBSERVED_PROPERTY: IC50
REPORTED_MEASUREMENT: > 1 mM

# next molecule below
Input: Form: Entry = OC[C@H]1NC[C@@H](O)[C@@H]1O | System = Coffee beans α-Galactosidase (Coffea arabica, UniProt Q42656) | IC50 = ____
Output: > 1 mM
